Data credit: ChEMBL document CHEMBL4689842

As shown below, each of these compounds has a reported Population Hoechst High Intensity Objects (%) value.
# Tested on: U2OS
# measurement_description: Multiplex assay against U2OS
# Type: toxicity, cell-based
# settings: human, 12 h, 1 µM, compound concentration 1 uM, replicate 1
measured_attribute: Population Hoechst High Intensity Objects (%)

| compound | val |
| --- | --- |
| CN1CCCC(n2nc(Cc3ccc(Cl)cc3)c3ccccc3c2=O)CC1.Cl (stereo not drawn) [AZELASTINE HYDROCHLORIDE] | 8 |
| CN(C)C(=O)N[C@H]1CC[C@H](CCN2CCN(c3cccc(Cl)c3Cl)CC2)CC1.Cl [CARIPRAZINE HYDROCHLORIDE] | 8 |
| Cc1nc(-c2cn3c(n2)-c2ccc(-c4cnn(C(C)(C)C(N)=O)c4)cc2OCC3)n(C(C)C)n1 [TASELISIB] | 2 |
| CNc1nc(NCc2ccc(NS(C)(=O)=O)cc2Cl)cc(-c2ccccn2)n1 | 10 |
| COc1cccc([C@@H](C)NCCCc2ccccc2Cl)c1.Cl [TECALCET HYDROCHLORIDE] | 32 |
| CC(C)NCC(O)COc1ccc(CCOCC2CC2)cc1.Cl (stereo not drawn) [BETAXOLOL HYDROCHLORIDE] | 8 |
| CCN(CC)CCCCNc1ncc2cc(-c3cc(OC)cc(OC)c3)c(NC(=O)NC(C)(C)C)nc2n1 [PD-173074] | 56 |
| C[C@@]1(C(=O)Nc2ccc(F)nc2)CCCN1c1nc(Nc2cc(C3CC3)n[nH]2)c2cccn2n1 [BMS-754807] | 4 |
